Provenance of the data: patent US20240409645A1

- target or test system: T1, mouse common cytokine receptor γ-chain (IL-2Rγ) (mouse, UniProt P34902 23-263, limits assumed)
- T1 construct: Recombinant mouse IL-2Rγ protein; also called mo IL-2R; mouse IL-2R gamma
- T1 sequence (looked up): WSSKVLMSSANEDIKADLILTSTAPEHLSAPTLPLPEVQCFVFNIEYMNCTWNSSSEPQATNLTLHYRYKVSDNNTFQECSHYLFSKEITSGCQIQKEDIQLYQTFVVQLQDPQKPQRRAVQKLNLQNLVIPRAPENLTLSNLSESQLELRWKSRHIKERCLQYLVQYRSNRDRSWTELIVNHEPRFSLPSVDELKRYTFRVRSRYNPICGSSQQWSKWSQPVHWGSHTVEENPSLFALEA
- assay comment: P.E. off-rate SPR
- Description: SPR was performed to determine dissociation rates using Biacore 3000 instrument (GE Healthcare). Briefly, human and mouse IL-2R proteins were immobilized on carboxylmethyl dextran sensor chip (CM5) at approximately 2500 RUs using amine coupling in acetate buffer (GE Healthcare). The VHH-containing P.E. were loaded with a flow rate of 30 uL/min and the off-rates were measured over a 120s period.
Each item that follows carries a reported koff.
Answer with the figure and its unit, nothing else.

Examples with answers:
FJ1427_P035MP07E03 (VHH, tested as periplasmic extract; also called Clone nr; 597) VHH: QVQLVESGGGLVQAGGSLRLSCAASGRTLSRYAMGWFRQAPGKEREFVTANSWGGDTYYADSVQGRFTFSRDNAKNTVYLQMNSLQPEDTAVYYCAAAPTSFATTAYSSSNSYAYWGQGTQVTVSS | 0.0966 s⁻¹
FJ1427_P035MP07E09 (VHH, tested as periplasmic extract; also called Clone nr) VHH: QVQLQESGGGLVQAGGSLRLSCAASGRTLSRYAMGWFRQAPGKEREFVTANSWGGDTYYADSVQGRFTFSRDNAKNTVYLQMNSLQPEDTAVYYCAAAPTSFATTAYSSSNSYAYWGQGTQVTVSS | 0.108 s⁻¹
FJ1427_P035MP07B04 (VHH, tested as periplasmic extract; also called Clone nr; 602) VHH: EVQLVESGGGLVQAGGSLRLSCAASGRTLSRYAMGWFRQAPGKEREFVTANSWGGDTYYADSVQGRFTFSRDNAKNTVYLQMNSLQPEDTAVYYCAAAPTSFATTAYSSSNSYAYWGQGTQVTVSS | 0.114 s⁻¹

// moving on: another record for koff
Ask | Check the records and state koff for FJ1427_P035MP07A08 (VHH, tested as periplasmic extract; also called Clone nr; 633) VHH: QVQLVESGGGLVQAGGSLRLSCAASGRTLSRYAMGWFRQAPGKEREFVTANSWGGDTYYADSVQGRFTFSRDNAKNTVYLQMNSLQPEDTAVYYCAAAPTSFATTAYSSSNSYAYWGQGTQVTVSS
Reply | 0.106 s⁻¹
